B1: Hairpin Ribozyme (parent)
chain: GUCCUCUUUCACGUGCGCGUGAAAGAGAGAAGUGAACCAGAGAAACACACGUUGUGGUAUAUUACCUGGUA

Variants of: B1
Test: self-cleavage, relative activity (ratio to wild type); higher = more cleavage; co-transcriptional
Output yes for self-cleavage not less than 0.2; output no otherwise.

For orientation, consider the following solved cases.
For this variant, is measured self-cleavage 0.2 or higher? G15C A41C
yes

For this variant, is measured self-cleavage 0.2 or higher? C3A U14C
yes

For this variant, is measured self-cleavage 0.2 or higher? G27A C48G
no

New cases:
For this variant, is measured self-cleavage 0.2 or higher? G42U U58G
no

For this variant, is measured self-cleavage 0.2 or higher? U14A C65G
yes

For this variant, is measured self-cleavage 0.2 or higher? G15U A31G
yes
